- Tested on: ATP;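 note: ATP exposure 15 min at 22 °C before imaging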
- run-description: switch fluorescence ratio, 500 uM ATP over buffer (Cy3 cluster intensity, sum of 5 cycles each) (fold (ratio)); higher = stronger signal-on switching upon ATP binding; sequences stand for … in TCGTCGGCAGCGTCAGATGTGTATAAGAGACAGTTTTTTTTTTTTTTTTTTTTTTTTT…TC
- experimental-context: aptamer strand: ATP DNA aptamer (quencher-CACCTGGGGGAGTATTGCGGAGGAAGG + anchor), 100 nM annealed; ATP concentration: 500 uM
experimental-endpoint: switch fluorescence ratio
// keep it numeric: no unit symbol after the value

Problem: Answer with the recorded switch fluorescence ratio for the sequence listed here: GTTTGAGGCT
Solution: 1

Problem: Answer with the recorded switch fluorescence ratio for the sequence listed here: CTAGTTGGAT
Solution: 0.991

Problem: Answer with the recorded switch fluorescence ratio for the sequence listed here: GGATGATGGG
Solution: 1.01

Problem: Answer with the recorded switch fluorescence ratio for the sequence listed here: TTTAATTAAG
Solution: 0.985

Problem: Answer with the recorded switch fluorescence ratio for the sequence listed here: AGGTTGGGTT
Solution: 0.997

Problem: Answer with the recorded switch fluorescence ratio for the sequence listed here: CGGGGTAAGG
Solution: 0.988

Problem: Answer with the recorded switch fluorescence ratio for the sequence listed here: TGGTATTTTA
Solution: 0.982

Problem: Answer with the recorded switch fluorescence ratio for the sequence listed here: TTTTGCGCTC
Solution: 1

Problem: Answer with the recorded switch fluorescence ratio for the sequence listed here: CGGCGGGGAA
Solution: 0.976

Problem: Answer with the recorded switch fluorescence ratio for the sequence listed here: TTTGTTATTT
Solution: 1.01

Problem: Answer with the recorded switch fluorescence ratio for the sequence listed here: ATGTTTTATA
Solution: 1.02

Problem: Answer with the recorded switch fluorescence ratio for the sequence listed here: AGTCAAATGG
Solution: 0.996

Problem: Answer with the recorded switch fluorescence ratio for the sequence listed here: TATTTCGGTT
Solution: 1

Problem: Answer with the recorded switch fluorescence ratio for the sequence listed here: GGCGTAAGCT
Solution: 1.01

Problem: Answer with the recorded switch fluorescence ratio for the sequence listed here: GTTTTAAGGT
Solution: 1.02

Problem: Answer with the recorded switch fluorescence ratio for the sequence listed here: CACGGGGGTG
Solution: 0.987

Problem: Answer with the recorded switch fluorescence ratio for the sequence listed here: TGTTTTTGTT
Solution: 1.01

Problem: Answer with the recorded switch fluorescence ratio for the sequence listed here: TAGTGCCGGT
Solution: 0.993

Problem: Answer with the recorded switch fluorescence ratio for the sequence listed here: GCGGTCACGG
Solution: 0.997

Problem: Answer with the recorded switch fluorescence ratio for the sequence listed here: ATGTGACTGG
Solution: 0.986

Problem: Answer with the recorded switch fluorescence ratio for the sequence listed here: TGGGGTCGGC
Solution: 0.987

Problem: Answer with the recorded switch fluorescence ratio for the sequence listed here: GGGACGGGTG
Solution: 1.02

Problem: Answer with the recorded switch fluorescence ratio for the sequence listed here: TCGGCTTGTT
Solution: 1.02

Problem: Answer with the recorded switch fluorescence ratio for the sequence listed here: ATCCTTTCTT
Solution: 1

Problem: Answer with the recorded switch fluorescence ratio for the sequence listed here: CAGGGTTCGT
Solution: 0.989

Problem: Answer with the recorded switch fluorescence ratio for the sequence listed here: TTAAGGGACC
Solution: 1.02

Problem: Answer with the recorded switch fluorescence ratio for the sequence listed here: GAAAAAGCAT
Solution: 1

Problem: Answer with the recorded switch fluorescence ratio for the sequence listed here: GAGTGGCTGG
Solution: 0.979

Problem: Answer with the recorded switch fluorescence ratio for the sequence listed here: GGGGGGCATG
Solution: 0.992

Problem: Answer with the recorded switch fluorescence ratio for the sequence listed here: GACTACGGTT
Solution: 1.01

Problem: Answer with the recorded switch fluorescence ratio for the sequence listed here: GCGTAATGTT
Solution: 0.999

Problem: Answer with the recorded switch fluorescence ratio for the sequence listed here: AAAGATCGTG
Solution: 0.974

Problem: Answer with the recorded switch fluorescence ratio for the sequence listed here: CTGTAAGTCT
Solution: 0.989

Problem: Answer with the recorded switch fluorescence ratio for the sequence listed here: TTTTGTTAAT
Solution: 1.01

Problem: Answer with the recorded switch fluorescence ratio for the sequence listed here: GATGTTGTGT
Solution: 0.98

Problem: Answer with the recorded switch fluorescence ratio for the sequence listed here: CCAGAGGGAT
Solution: 0.992

Problem: Answer with the recorded switch fluorescence ratio for the sequence listed here: AATCGGGGCT
Solution: 0.992

Problem: Answer with the recorded switch fluorescence ratio for the sequence listed here: TGGAAGGGG
Solution: 1.02

Problem: Answer with the recorded switch fluorescence ratio for the sequence listed here: AGGCGCACGG
Solution: 1.01

Problem: Answer with the recorded switch fluorescence ratio for the sequence listed here: CATAATGAAG
Solution: 1.01

Problem: Answer with the recorded switch fluorescence ratio for the sequence listed here: ATTGCGGGGA
Solution: 0.985

Problem: Answer with the recorded switch fluorescence ratio for the sequence listed here: TTAGTTGAGG
Solution: 0.987

Problem: Answer with the recorded switch fluorescence ratio for the sequence listed here: AAGGTATGCT
Solution: 0.982

Problem: Answer with the recorded switch fluorescence ratio for the sequence listed here: TATTTTGGCC
Solution: 1.02

Problem: Answer with the recorded switch fluorescence ratio for the sequence listed here: AACTGGGGGC
Solution: 1

Problem: Answer with the recorded switch fluorescence ratio for the sequence listed here: GGAGGTTTGG
Solution: 0.992

Problem: Answer with the recorded switch fluorescence ratio for the sequence listed here: CATAGGGACG
Solution: 0.989

Problem: Answer with the recorded switch fluorescence ratio for the sequence listed here: AGTTATGGGG
Solution: 1

Problem: Answer with the recorded switch fluorescence ratio for the sequence listed here: TAAATTTTTG
Solution: 1.07

Problem: Answer with the recorded switch fluorescence ratio for the sequence listed here: GATGGTTAGA
Solution: 0.998

Problem: Answer with the recorded switch fluorescence ratio for the sequence listed here: ACTCTGGGTC
Solution: 1.07

Problem: Answer with the recorded switch fluorescence ratio for the sequence listed here: AAGGGAATAG
Solution: 1.02

Problem: Answer with the recorded switch fluorescence ratio for the sequence listed here: GATACTTTTT
Solution: 1.01

Problem: Answer with the recorded switch fluorescence ratio for the sequence listed here: GCCAGTGTTT
Solution: 1.02

Problem: Answer with the recorded switch fluorescence ratio for the sequence listed here: CTCTGCGTCA
Solution: 1.32

Problem: Answer with the recorded switch fluorescence ratio for the sequence listed here: TTTAAAGAGT
Solution: 0.972

Problem: Answer with the recorded switch fluorescence ratio for the sequence listed here: AAGGGGGGCC
Solution: 1.01

Problem: Answer with the recorded switch fluorescence ratio for the sequence listed here: TAATCCGGTC
Solution: 1.04

Problem: Answer with the recorded switch fluorescence ratio for the sequence listed here: CAGCGCGGGA
Solution: 0.999

Problem: Answer with the recorded switch fluorescence ratio for the sequence listed here: CGTAGGGGAA
Solution: 0.993

Problem: Answer with the recorded switch fluorescence ratio for the sequence listed here: TTTTTTAGT
Solution: 0.992

Problem: Answer with the recorded switch fluorescence ratio for the sequence listed here: ATTCGGAATA
Solution: 1.06

Problem: Answer with the recorded switch fluorescence ratio for the sequence listed here: TTTGTTTTCT
Solution: 1.01

Problem: Answer with the recorded switch fluorescence ratio for the sequence listed here: CTGGGGTCGG
Solution: 1

Problem: Answer with the recorded switch fluorescence ratio for the sequence listed here: CCTTGTCGG
Solution: 1.07
